Tested on: U-251
Experiment: NCI tumour cell line growth inhibition, 48 h
Active and inactive are the calls of the source. Cut-off read from the data, not from the text of the source: active = GI50 up to about 1.1 µM and inactive = higher.
Please reply with one of these outcomes: 1 = active, 0 = inactive

Please share the test call associated with `Cc1nc2c(n1CCN(C)C)C(=O)c1ccccc1C2=O` .
0

// repeat for `Cc1cc2c3c([nH]c2c2ccnc(C)c12)CCCC3` and report
0

Next entry: `C=C(C)c1nc(Oc2ccccc2)nc(Oc2ccccc2)n1`
0

Here is the next compound: `Cc1ccc(NC(=O)COC(=O)c2cccc3c(=O)c4ccccc4[nH]c23)cc1`
0

Now try `CNC(=O)OCc1c2ccncc2c(C)c2c1[nH]c1ccc(OC)cc12` .
1

// same read-out, input: `CCCCNC(=O)CCN(C(=O)O)S(=O)(=O)c1ccc(NC(=O)c2ccccc2)cc1`
0

Note, next up: `Nc1ncc(CN2CCOCC2)c(-c2ccccc2O)n1`
0

Repeat with NCC1OC(n2cnc3c(=O)[nH]c(N)nc32)C(O)C1O (stereo unspecified)
0

Then what about the compound NC(=O)/C(=N\NC(=O)c1cc2ccccc2cc1O)C1C(=O)N(c2ccccc2)N=C1N (stereo unspecified) ?
0

// same read-out, input: `Brc1ccc2c(c1)C1=C(CO2)Cc2ccccc2O1`
0

Now the compound `O/N=C(\CC(O)(C(F)(F)F)C(F)(F)F)c1cccc(Cl)c1`
0
